- target system: Histone-lysine N-methyltransferase SETD7 (Homo sapiens)
- Sequence (whole entry): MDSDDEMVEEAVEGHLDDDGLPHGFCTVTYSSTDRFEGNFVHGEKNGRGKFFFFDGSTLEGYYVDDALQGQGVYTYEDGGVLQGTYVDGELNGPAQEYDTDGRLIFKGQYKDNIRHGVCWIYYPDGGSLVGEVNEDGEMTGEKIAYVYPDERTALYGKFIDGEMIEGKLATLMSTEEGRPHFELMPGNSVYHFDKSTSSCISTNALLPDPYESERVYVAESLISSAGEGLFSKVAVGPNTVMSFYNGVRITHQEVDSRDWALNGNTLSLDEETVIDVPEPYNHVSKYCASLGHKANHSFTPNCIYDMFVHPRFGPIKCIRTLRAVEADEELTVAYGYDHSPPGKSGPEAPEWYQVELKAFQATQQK
- method description: Inhibition of human recombinant SET7 assessed as histone H3 protein methylation at 100 uM
Active and inactive are the calls of the source. The rule behind the calls is not given here.
outcome measure: Activity

>>> observed("O=C1/C(=C/c2ccc(O)c(Br)c2)CSC/C1=C\\c1ccc(O)c(Br)c1")
"inactive"
>>> observed("O=C(/C=C/c1cc(Br)c(O)c(Br)c1)/C=C/c1cc(Br)c(O)c(Br)c1")
"Active"
>>> observed("O=C(Nc1ccc(NC(=O)c2cc(Br)c(O)c(Br)c2)cc1)c1cc(Br)c(O)c(Br)c1")
"Active"
>>> observed("O=C(/C=C/c1ccc(O)c(Br)c1)c1ccc(C(=O)/C=C/c2ccc(O)c(Br)c2)cc1")
"inactive"

Here's the next entry for you.
Form: Entry = `CN1C/C(=C\c2cc(Br)c(O)c(Br)c2)C(=O)/C(=C/c2cc(Br)c(O)c(Br)c2)C1` | System = Histone-lysine N-methyltransferase SETD7 (Homo sapiens) | Activity = ____
Active

---

Reported inhibition values for the following compounds.
- target system: NAD-dependent protein deacetylase sirtuin-2 (Homo sapiens) (UniProt Q8IXJ6)
- Sequence (Q8IXJ6 whole entry): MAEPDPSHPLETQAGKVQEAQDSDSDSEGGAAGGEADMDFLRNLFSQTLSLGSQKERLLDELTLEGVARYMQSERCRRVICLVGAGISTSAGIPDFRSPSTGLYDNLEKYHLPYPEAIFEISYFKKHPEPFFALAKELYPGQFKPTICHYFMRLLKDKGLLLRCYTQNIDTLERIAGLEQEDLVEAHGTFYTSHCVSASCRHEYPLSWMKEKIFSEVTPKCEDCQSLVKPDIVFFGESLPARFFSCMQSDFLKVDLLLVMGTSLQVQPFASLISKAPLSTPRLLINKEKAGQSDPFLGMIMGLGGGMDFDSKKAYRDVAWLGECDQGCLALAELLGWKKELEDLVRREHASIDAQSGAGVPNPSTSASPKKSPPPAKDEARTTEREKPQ
- method description: Inhibition of human SIRT2 at 25 uM
Provide the reading as a plain figure in %.

These recorded examples may help you get a feel for the data.
>>> observed("O=C1/C(=C/c2cc(Br)c(O)c(Br)c2)CSC/C1=C\\c1cc(Br)c(O)c(Br)c1")
59
>>> observed("O=C(/C=C/c1cc(Br)c(O)c(Br)c1)c1cccc(C(=O)/C=C/c2cc(Br)c(O)c(Br)c2)c1")
48
>>> observed("O=C1/C(=C/c2cc(Br)c(O)c(Br)c2)CCC/C1=C\\c1cc(Br)c(O)c(Br)c1")
56

# evaluate next
I have this compound here, `O=C1OC2(c3ccccc31)c1cc(Br)c(O)c(Br)c1Oc1c2cc(Br)c(O)c1Br` , and I need its recorded inhibition.
31

---

- target system: Histone-arginine methyltransferase CARM1 (Homo sapiens)
- Sequence (whole entry): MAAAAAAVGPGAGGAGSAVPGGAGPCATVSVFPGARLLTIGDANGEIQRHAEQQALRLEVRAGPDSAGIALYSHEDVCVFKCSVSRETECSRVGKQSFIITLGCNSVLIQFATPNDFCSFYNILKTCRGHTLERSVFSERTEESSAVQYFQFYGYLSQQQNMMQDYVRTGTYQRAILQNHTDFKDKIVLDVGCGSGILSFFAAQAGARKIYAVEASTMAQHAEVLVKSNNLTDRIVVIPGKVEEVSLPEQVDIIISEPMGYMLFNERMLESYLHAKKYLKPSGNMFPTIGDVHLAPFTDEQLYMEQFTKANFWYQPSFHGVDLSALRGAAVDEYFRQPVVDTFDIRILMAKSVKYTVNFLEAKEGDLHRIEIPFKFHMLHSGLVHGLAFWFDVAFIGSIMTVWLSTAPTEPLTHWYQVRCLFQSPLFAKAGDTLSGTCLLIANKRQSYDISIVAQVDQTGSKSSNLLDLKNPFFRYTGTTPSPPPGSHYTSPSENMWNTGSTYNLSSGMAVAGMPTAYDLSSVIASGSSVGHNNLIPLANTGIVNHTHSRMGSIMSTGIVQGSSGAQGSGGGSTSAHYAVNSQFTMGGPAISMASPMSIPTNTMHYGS
- method description: Inhibition of human recombinant CARM1 assessed as poly(A) binding protein 1 methylation at 100 uM
Activity calls are given as the source filed them. The rule behind the calls is not given here.
Your response should consist of one outcome taken from y for active, n for inactive

Field: example entries. Status: answers known.
>>> class("O=C(/C=C/c1ccc(O)c(Br)c1)CC(=O)/C=C/c1ccc(O)c(Br)c1")
"y"
>>> class("O=C(/C=C/c1cc(Br)c(O)c(Br)c1)c1ccc(C(=O)/C=C/c2cc(Br)c(O)c(Br)c2)cc1")
"y"

Call for entry `O=C1/C(=C/c2ccc(O)c(Br)c2)CCCC/C1=C\c1ccc(O)c(Br)c1` :
y

Now the same for `O=C1/C(=C/c2ccc(O)c(Br)c2)CSC/C1=C\c1ccc(O)c(Br)c1`
y

---

- target system: Histone-arginine methyltransferase CARM1 (Homo sapiens)
- Sequence (whole entry): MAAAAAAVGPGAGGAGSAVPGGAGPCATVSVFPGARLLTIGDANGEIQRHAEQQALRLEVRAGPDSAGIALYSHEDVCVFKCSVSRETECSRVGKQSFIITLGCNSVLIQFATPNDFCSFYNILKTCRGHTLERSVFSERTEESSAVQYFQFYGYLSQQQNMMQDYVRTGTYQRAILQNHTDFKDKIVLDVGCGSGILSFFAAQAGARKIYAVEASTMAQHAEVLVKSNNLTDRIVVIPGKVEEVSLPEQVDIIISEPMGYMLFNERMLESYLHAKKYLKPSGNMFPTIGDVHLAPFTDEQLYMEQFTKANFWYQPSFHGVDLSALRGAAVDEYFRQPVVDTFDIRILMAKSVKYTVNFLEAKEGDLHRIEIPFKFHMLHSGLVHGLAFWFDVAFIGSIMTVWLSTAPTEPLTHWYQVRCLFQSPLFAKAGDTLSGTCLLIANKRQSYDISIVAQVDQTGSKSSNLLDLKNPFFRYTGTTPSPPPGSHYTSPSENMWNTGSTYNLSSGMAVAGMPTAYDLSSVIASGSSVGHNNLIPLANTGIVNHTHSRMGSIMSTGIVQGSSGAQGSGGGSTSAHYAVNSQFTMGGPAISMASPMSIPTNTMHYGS
- method description: Inhibition of human recombinant CARM1 assessed as poly(A) binding protein 1 methylation at 100 uM
Calls of active or inactive are those of the source. No cut-off for these calls is given here.
// one of active, inactive, no free text

Before answering, review these 5 worked examples.
>>> class("O=C(Nc1cccc(NC(=O)c2cc(Br)c(O)c(Br)c2)c1)c1cc(Br)c(O)c(Br)c1")
"active"
>>> class("O=C(/C=C/c1ccc(O)c(Br)c1)c1ccc(C(=O)/C=C/c2ccc(O)c(Br)c2)cc1")
"active"
>>> class("O=C(/C=C/c1ccc(O)c(Br)c1)c1cccc(C(=O)/C=C/c2ccc(O)c(Br)c2)c1")
"active"
>>> class("O=C1OC2(c3ccccc31)c1cc(Br)c(O)c(Br)c1Oc1c2cc(Br)c(O)c1Br")
"active"
>>> class("O=C(/C=C/c1cc(Br)c(O)c(Br)c1)/C=C/c1cc(Br)c(O)c(Br)c1")
"active"

Please share the test call associated with `O=C(/C=C/c1ccc(O)c(Br)c1)/C=C/c1cc(Br)c(O)c(Br)c1` .
active

Also, `O=C(/C=C/c1cc(Br)c(O)c(Br)c1)c1cc(Br)c(O)c(Br)c1` please.
inactive

Repeat for the following compound: `O=C1/C(=C/c2cc(Br)c(O)c(Br)c2)CSC/C1=C\c1cc(Br)c(O)c(Br)c1`
active

Moving on to the next compound: `O=C1/C(=C/c2cc(Br)c(O)c(Br)c2)CCC/C1=C\c1cc(Br)c(O)c(Br)c1`
active

Now consider `O=C(/C=C/c1ccc(O)c(Br)c1)/C=C/c1ccc(O)c(Br)c1` and answer again.
active

// next record `O=C(/C=C/c1cc(Br)c(O)c(Br)c1)c1cccc(C(=O)/C=C/c2cc(Br)c(O)c(Br)c2)c1`
active

Then what about the compound `O=C(Nc1ccc(NC(=O)c2cc(Br)c(O)c(Br)c2)cc1)c1cc(Br)c(O)c(Br)c1` ?
active

Next up: `O=C1/C(=C/c2ccc(O)c(Br)c2)CN(Cc2ccccc2)C/C1=C\c1ccc(O)c(Br)c1`
active

Same again, this time with `CN1C/C(=C\c2cc(Br)c(O)c(Br)c2)C(=O)/C(=C/c2cc(Br)c(O)c(Br)c2)C1`
active

Query `O=C1/C(=C/c2cc(Br)c(O)c(Br)c2)COC/C1=C\c1cc(Br)c(O)c(Br)c1` next
active

Okay, and `O=C1/C(=C/c2ccc(O)c(Br)c2)COC/C1=C\c1ccc(O)c(Br)c1` ?
active

Then what about the compound `O=C1/C(=C/c2ccc(O)c(Br)c2)CCC/C1=C\c1ccc(O)c(Br)c1` ?
active

Moving on to `O=C(/C=C/c1cc(Br)c(O)c(Br)c1)CC(=O)/C=C/c1cc(Br)c(O)c(Br)c1`
active

Cool, now `O=C(Nc1cc(Br)c(O)c(Br)c1)c1cccc(C(=O)Nc2cc(Br)c(O)c(Br)c2)c1`
active
